experiment: Acute toxicity (LD50) by mice; details: mouse, in vivo, po
Where a name gives a salt, the structure may show the parent alone.
METRIC: LD50

[[record]]
compound = "COC(=O)[C@H]1NC(=O)[C@H](O)[C@@H](O)[C@@H]1O"
result = "> 10000 mg/kg"


Reported LD50 for O=C(O)[C@H]1NC(=O)[C@H](O)[C@@H](O)[C@@H]1O [D-Glucaro-δ-lactam sodium salt] : what is it?
> 5000 mg/kg

====

experiment: Acute toxicity (LD50) by mice; details: mouse, in vivo, sc
METRIC: LD50

Reported LD50 for `O=C1N[C@H](COC(c2ccccc2)(c2ccccc2)c2ccccc2)[C@@H](O)[C@H](O)[C@H]1O` : what is it?
> 300 mg/kg
